# Tested on: NF-κB
# ASSAY OVERVIEW: inhibition of NF-κB activation in NF-κB-bla THP-1 cells after LPS stimulation
# Assay type: cell-based, human
# RUN CONDITIONS: Homo sapiens, THP-1; LPS stimulation; 50% of the compound's maximum inhibition; averages; read-out: IC50
MEASUREMENT TYPE: pIC50
Just so you know, pIC50 here is -log10 of the concentration in molar units; reply with that number alone.

The compound C[C@@H]1C[C@H]2[C@@H]3CCC4=CC(=O)C=C[C@]4(C)[C@@]3(F)[C@@H](O)C[C@]2(C)[C@@]1(O)C(=O)CO [dexamethasone, reference compound] on NF-κB: pIC50 was 9.33

* * *

# System: MG-63 cells
# ASSAY OVERVIEW: pilot studies of dexamethasone in MG-63 cells
# Assay type: cell-based
# RUN CONDITIONS: Homo sapiens, read-out: IC50 for inhibition of growth of MG-63 cells
MEASUREMENT TYPE: pIC50
Just so you know, pIC50 here is -log10 of the concentration in molar units; reply with that number alone.

pIC50 for C[C@@H]1C[C@H]2[C@@H]3CCC4=CC(=O)C=C[C@]4(C)[C@@]3(F)[C@@H](O)C[C@]2(C)[C@@]1(O)C(=O)CO [dexamethasone, reference compound] is 7.82
